Ref: ChEMBL document CHEMBL1124086

- ASSAY COMMENT: Effect on placental diamine oxidase (0.1 uM) after 30 min of incubation at pH 7.2
- Parameters: species or system Homo sapiens
- RUN PARAMETERS: read-out: I50
OUTCOME MEASURE: pIC50
Scale: negative log10 of molar concentration, which is what pIC50 denotes.

1) NNC(=O)c1ccc(-n2cccc2)cc1    4.30
2) NNC(=O)Cc1ccc(-n2cccc2)cc1    5.00
3) NNC(=O)Cc1cccc(-n2cccc2)c1    5.00
4) NNC(=O)c1cccc(-n2cccc2)c1    4.00
5) Cc1ccc(C)n1-c1ccc(CC(=O)NN)cc1    4.30

Query string: Please report the recorded pIC50 for NNC(=O)c1ccccc1-n1cccc1 .
Result string: 4.00

Query string: What do you get for CC(C)=NNC(=O)Cc1ccc(-n2cccc2)cc1 ?
Result string: 5.00
